Data origin: patent US7217702B2

Target: A1AR (Homo sapiens, UniProt P30542)
Sequence (P30542 whole entry): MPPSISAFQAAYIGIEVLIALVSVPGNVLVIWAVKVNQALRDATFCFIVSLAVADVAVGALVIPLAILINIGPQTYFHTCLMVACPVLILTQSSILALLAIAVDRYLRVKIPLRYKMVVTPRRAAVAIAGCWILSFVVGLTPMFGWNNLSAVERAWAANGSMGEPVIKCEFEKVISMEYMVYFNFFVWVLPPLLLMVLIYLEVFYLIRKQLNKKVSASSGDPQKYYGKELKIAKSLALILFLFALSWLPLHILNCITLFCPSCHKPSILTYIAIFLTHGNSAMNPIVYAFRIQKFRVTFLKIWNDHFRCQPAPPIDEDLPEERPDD
Experiment: Binding affinity of A2AAR ligands, radioligand displacement at A1AR
The following molecules are listed with their measured Ki values.

- molecule: "Nc1nc(C#CC2(O)C3CC4CC(C3)CC2C4)nc2c1ncn2C1CCCC1 (stereo not drawn)"
  study system: "A1AR (Homo sapiens, UniProt P30542)"
  modifier sign: ">"
  Ki / nM: 325
- molecule: "C#CCn1cnc2c(NC(CC)CC)nc(C#C[C@]3(O)CCC[C@@H](C)C3)nc21"
  study system: "A1AR (Homo sapiens, UniProt P30542)"
  modifier sign: "="
  Ki / nM: 11
- molecule: "C[C@@H]1CCC[C@@](O)(C#Cc2nc(N)c3ncn(C4CCCC4)c3n2)C1"
  study system: "A1AR (Homo sapiens, UniProt P30542)"
  modifier sign: "="
  Ki / nM: 368
- molecule: "CCC(CC)Nc1nc(C#C[C@]2(O)CCC[C@@H](C)C2)nc2c1ncn2C"
  study system: "A1AR (Homo sapiens, UniProt P30542)"
  modifier sign: "="
  Ki / nM: 172
- molecule: "C#CCn1cnc2c(N)nc(C#CC3(O)C4CC5CC(C4)CC3C5)nc21 (stereo not drawn)"
  study system: "A1AR (Homo sapiens, UniProt P30542)"
  modifier sign: "="
  Ki / nM: 25
- molecule: "C#CCn1cnc2c(N)nc(C#C[C@]3(O)CCC[C@@H](C)C3)nc21"
  study system: "A1AR (Homo sapiens, UniProt P30542)"
  modifier sign: "="
  Ki / nM: 4.6

====

Measured Ki of individual entries
Biological target: UniProtKB P29275
Sequence (P29275 1-332): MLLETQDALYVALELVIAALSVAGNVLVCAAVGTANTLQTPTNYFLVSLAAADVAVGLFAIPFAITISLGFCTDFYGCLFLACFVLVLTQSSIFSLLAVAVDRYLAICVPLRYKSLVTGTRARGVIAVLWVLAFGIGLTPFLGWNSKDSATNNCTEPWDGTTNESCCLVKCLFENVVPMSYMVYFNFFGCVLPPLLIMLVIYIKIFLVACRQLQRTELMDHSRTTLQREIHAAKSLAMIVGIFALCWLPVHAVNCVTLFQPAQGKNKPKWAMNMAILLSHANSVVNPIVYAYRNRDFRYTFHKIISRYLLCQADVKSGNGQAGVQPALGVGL
Test: Binding affinity of A2AAR ligands, radioligand displacement at A2BAR

- compound: "C#CCn1cnc2c(N)nc(C#C[C@]3(O)CCC[C@@H](C)C3)nc21"
  units: "nM"
  Ki: 50
- compound: "C#CCn1cnc2c(NC(CC)CC)nc(C#C[C@]3(O)CCC[C@@H](C)C3)nc21"
  units: "nM"
  Ki: 147
- compound: "C[C@@H]1CCC[C@@](O)(C#Cc2nc(N)c3ncn(C4CCCC4)c3n2)C1"
  units: "nM"
  Ki: 357
- compound: "C#CCn1cnc2c(N)nc(C#CC3(O)C4CC5CC(C4)CC3C5)nc21 (stereo not shown)"
  units: "nM"
  Ki: 155

====

Target: A3AR (Homo sapiens)
Sequence (P0DMS8 whole entry): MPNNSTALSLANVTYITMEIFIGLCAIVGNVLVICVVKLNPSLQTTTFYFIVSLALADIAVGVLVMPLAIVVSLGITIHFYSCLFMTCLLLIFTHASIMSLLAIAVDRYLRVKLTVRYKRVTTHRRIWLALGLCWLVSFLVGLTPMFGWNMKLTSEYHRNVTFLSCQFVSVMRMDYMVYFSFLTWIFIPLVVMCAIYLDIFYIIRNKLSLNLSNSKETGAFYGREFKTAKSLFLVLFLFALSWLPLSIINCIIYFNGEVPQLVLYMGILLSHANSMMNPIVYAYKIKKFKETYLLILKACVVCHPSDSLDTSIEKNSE
Assay: Binding affinity of A2AAR ligands, radioligand displacement at A3AR
measurement label: Ki (nM)

- molecule: "C[C@@H]1CCC[C@@](O)(C#Cc2nc(N)c3ncn(C4CCCC4)c3n2)C1"
  units: "nM"
  modifier sign: "="
  val: 633
- molecule: "C#CCn1cnc2c(N)nc(C#C[C@]3(O)CCC[C@@H](C)C3)nc21"
  units: "nM"
  modifier sign: "="
  val: 599
- molecule: "C#CCn1cnc2c(NC(CC)CC)nc(C#C[C@]3(O)CCC[C@@H](C)C3)nc21"
  units: "nM"
  modifier sign: "="
  val: 188
- molecule: "C#CCn1cnc2c(N)nc(C#CC3(O)C4CC5CC(C4)CC3C5)nc21 (stereo not shown)"
  units: "nM"
  modifier sign: ">"
  val: 650
